Every entry's value here was drawn from the kinase profiling compilation of Christmann-Franck et al. (2016).

Target: ADCK3 (human)
pIC50: −log10 of the molar value.
outcome_measure: pIC50

Recorded pIC50 for `CN1CC[C@H](c2c(O)cc(O)c3c(=O)cc(-c4ccccc4Cl)oc23)[C@H](O)C1` on ADCK3 (human) was < 5.00

====

Molecular target: BTK (human)
outcome_measure: IC50

The molecule `CN1CC[C@H](c2c(O)cc(O)c3c(=O)cc(-c4ccccc4Cl)oc23)[C@H](O)C1` , tested on BTK (human), showed IC50 of > 10 µM

====

Target: MARK3 (human) (UniProt P27448)
Sequence (P27448 whole entry, looked up): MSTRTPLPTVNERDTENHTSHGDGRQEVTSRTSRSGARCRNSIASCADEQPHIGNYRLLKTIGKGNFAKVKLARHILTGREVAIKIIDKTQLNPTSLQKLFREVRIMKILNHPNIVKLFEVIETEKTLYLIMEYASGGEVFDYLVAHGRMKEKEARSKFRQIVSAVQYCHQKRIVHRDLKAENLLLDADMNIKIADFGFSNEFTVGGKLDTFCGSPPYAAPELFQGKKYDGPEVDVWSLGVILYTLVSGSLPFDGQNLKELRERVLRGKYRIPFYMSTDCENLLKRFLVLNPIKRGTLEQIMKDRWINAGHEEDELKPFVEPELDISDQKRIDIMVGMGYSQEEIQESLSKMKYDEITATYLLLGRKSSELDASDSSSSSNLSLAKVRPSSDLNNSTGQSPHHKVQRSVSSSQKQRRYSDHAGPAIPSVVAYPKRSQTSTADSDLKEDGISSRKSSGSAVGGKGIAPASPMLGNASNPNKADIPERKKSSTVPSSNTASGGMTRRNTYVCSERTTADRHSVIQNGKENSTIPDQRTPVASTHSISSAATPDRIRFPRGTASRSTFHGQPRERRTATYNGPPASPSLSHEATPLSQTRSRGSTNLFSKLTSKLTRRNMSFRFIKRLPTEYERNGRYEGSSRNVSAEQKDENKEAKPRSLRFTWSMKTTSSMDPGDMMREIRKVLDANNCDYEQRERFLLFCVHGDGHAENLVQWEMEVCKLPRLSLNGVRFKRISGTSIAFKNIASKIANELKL
outcome_measure: IC50
Please make sure the unit comes right after the number.

Item: `CN1CC[C@H](c2c(O)cc(O)c3c(=O)cc(-c4ccccc4Cl)oc23)[C@H](O)C1` | System: MARK3 (human) (UniProt P27448) | IC50: 3 µM
